Data provenance: patent US9200046B2

Molecular target: Nrf2-Keap1 complex (Homo sapiens, UniProt Q14145)
Sequence (Q14145 whole entry, one chain of several): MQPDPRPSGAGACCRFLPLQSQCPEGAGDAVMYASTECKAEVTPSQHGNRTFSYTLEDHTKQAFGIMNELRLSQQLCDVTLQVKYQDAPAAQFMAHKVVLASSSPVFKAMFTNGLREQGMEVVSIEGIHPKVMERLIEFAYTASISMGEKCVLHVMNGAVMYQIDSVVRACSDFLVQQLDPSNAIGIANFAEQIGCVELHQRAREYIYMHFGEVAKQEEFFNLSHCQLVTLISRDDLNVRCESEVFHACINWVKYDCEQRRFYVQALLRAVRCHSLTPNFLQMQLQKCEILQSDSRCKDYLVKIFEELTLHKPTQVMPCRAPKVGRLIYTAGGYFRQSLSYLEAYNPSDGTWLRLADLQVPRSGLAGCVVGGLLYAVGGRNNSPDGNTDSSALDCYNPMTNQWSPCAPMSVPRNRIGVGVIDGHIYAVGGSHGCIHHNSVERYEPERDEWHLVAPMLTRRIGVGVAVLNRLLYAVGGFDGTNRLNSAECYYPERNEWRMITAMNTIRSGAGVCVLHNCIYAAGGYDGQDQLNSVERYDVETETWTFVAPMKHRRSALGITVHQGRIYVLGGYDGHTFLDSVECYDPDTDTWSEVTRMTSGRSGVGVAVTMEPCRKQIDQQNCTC
Assay: cell-based
Assay type: cell-based
Details: Table 2; 100 nL compound; screen run at 16 and 32 μM, 3 hr
API: label(entry) gives Fulfilled if the entry's 100 nL (luminescence) is strictly smaller than 1000; on equality or larger values it gives Not fulfilled.

Example entries and their recorded answers appear below.
| compound | category |
| --- | --- |
| COc1ccc(/C=C/C(=O)c2ccc(O)cc2O)cc1 [2′,4′-DIHYDROXY-4-METHOXYCHALCONE] | Not fulfilled |
| COc1cc([C@@H]2c3cc4c(cc3[C@@H](O[C@@H]3O[C@@H]5CO[C@@H](c6cccs6)O[C@H]5[C@H](O)[C@H]3O)[C@H]3COC(=O)[C@H]23)OCO4)cc(OC)c1O [TENIPOSIDE, reference compound] | Not fulfilled |
| Cc1coc2c1C(=O)C(=O)c1c-2ccc2c1CCCC2(C)C [TANSHINONEIIA] | Not fulfilled |
| C[C@@](Cc1ccc(O)c(O)c1)(NN)C(=O)O [CARBIDOPA, reference compound] | Not fulfilled |
| COC(=O)CC[C@@H](C)[C@H]1CC[C@H]2[C@@H]3[C@H](O)C[C@@H]4C[C@H](O)CC[C@]4(C)[C@H]3C[C@H](O)[C@]12C [CHOLICACID, METHYLESTER] | Fulfilled |
| CC(=O)OC[C@@]1(O)C[C@@]23CC[C@@H]4c5ccoc5CC[C@@]4(C)[C@@H]2CC[C@@H]1C3 [CAFESTOLACETATE] | Not fulfilled |
| CC(C)CCCC1(C)C=Cc2c(O)c3c(c(CCC(C)C)c2O1)OC12C(CC4CC1C(C)(C)OC2(CCC(C)C(=O)O)C4O)C3=O (stereo not shown) [DECAHYDROGAMBOGICACID] | Not fulfilled |
| CC(=O)O[C@H]1CC[C@]2(C)[C@H]3CC[C@@]4(C)[C@H](c5ccoc5)OC(=O)[C@H]5O[C@]54[C@]3(C)[C@H](OC(C)=O)C[C@H]2C1(C)C [3beta-ACETOXYDEOXODIHYDROGEDUNIN] | Fulfilled |

Below 1000 on 100 nL (luminescence)? Entry O=C(O)/C=C/c1ccc(O)c(O)c1 [[…]]
Not fulfilled

Below 1000 on 100 nL (luminescence)? Entry CC(=O)O[C@@H]1CC2C(C)(C)[C@H](O)C=C[C@]2(C)C2CC[C@]3(C)C(=CC(=O)O[C@H]3c3ccoc3)[C@@]21C (stereo partly drawn) [3-alpha-HYDROXYDEOXYGEDININ]
Not fulfilled

Below 1000 on 100 nL (luminescence)? Entry O=C1c2cccc(O)c2C(=O)c2c(O)cccc21 [DANTRON, reference compound]
Fulfilled

Below 1000 on 100 nL (luminescence)? Entry `COc1ccc(C(=O)c2ccccc2)c(O)c1O`
Fulfilled

Below 1000 on 100 nL (luminescence)? Entry COc1cccc(O)c1O [3-METHOXYCATECHOL]
Fulfilled
